Reference source: patent US20230331719A1

What follows is a collection of log10(IC50) values obtained with IRE1α RNase (Homo sapiens (Human)).
Sequence (O75460 468-977): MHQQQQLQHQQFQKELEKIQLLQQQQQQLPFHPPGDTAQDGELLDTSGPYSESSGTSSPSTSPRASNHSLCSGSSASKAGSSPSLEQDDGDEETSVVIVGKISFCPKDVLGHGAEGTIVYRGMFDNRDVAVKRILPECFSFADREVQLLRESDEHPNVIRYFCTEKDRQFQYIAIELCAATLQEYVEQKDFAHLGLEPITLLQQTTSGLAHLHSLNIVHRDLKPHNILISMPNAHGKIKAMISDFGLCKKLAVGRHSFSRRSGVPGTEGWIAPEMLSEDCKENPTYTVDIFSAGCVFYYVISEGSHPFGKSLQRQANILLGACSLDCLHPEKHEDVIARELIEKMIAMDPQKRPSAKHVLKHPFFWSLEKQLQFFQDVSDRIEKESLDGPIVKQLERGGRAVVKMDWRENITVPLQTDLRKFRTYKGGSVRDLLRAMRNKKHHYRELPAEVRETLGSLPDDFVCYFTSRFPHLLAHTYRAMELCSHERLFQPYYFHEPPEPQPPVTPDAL
Lab note - IC50 converted to log10 from values in nM.

Recorded results for 3 compounds are shown here.
{"Query smiles": "CC(C)n1nc(-c2cc(F)c(NS(=O)(=O)Cc3ccccc3F)cc2F)c2c(N)ncc([C@H]3CC[C@H](N4CCOCC4)CC3)c21", "log10(IC50)": 0.68}
{"Query smiles": "COCCN[C@H]1CC[C@H](c2cnc(N)c3c(-c4cc(F)c(NS(=O)(=O)c5cc(C)ccc5Cl)cc4F)nn(C(C)C)c32)CC1", "log10(IC50)": 0.45}
{"Query smiles": "COCCN[C@H]1CC[C@H](c2cnc(N)c3c(-c4cc(F)c(NS(=O)(=O)c5cc(OC(F)F)ccc5Cl)cc4F)nn(C(C)C)c32)CC1", "log10(IC50)": 0.43}

// lookup log10(IC50) | system=IRE1α RNase (Homo sapiens (Human)) | key= CC(C)n1nc(-c2cc(F)c(NS(=O)(=O)c3ccccc3F)cc2F)c2c(N)ncc([C@H]3CC[C@H](NCCOC(F)(F)F)CC3)c21
1.25

// lookup log10(IC50) | system=IRE1α RNase (Homo sapiens (Human)) | key= CC(C)n1nc(-c2cc(F)c(NS(=O)(=O)c3ccccc3F)cc2F)c2c(N)ncc([C@H]3CC[C@@H](N4CCOCC4)CC3)c21
2.67

// lookup log10(IC50) | system=IRE1α RNase (Homo sapiens (Human)) | key= COCCN[C@H]1CC[C@H](c2cnc(N)c3c(-c4cc(F)c(NS(=O)(=O)c5cc(OC(F)(F)F)ccc5Cl)cc4F)nn(C(C)C)c32)CC1
0.53

// lookup log10(IC50) | system=IRE1α RNase (Homo sapiens (Human)) | key= CC(C)n1nc(-c2cc(F)c(NS(=O)(=O)c3cc(Cl)ccc3F)cc2F)c2c(N)ncc([C@H]3CC[C@H](N4CCOCC4)CC3)c21
0.54

// lookup log10(IC50) | system=IRE1α RNase (Homo sapiens (Human)) | key= COC(C)(C)CN[C@H]1CC[C@H](c2cnc(N)c3c(-c4cc(F)c(NS(=O)(=O)c5ccccc5F)cc4F)nn(C(C)C)c32)CC1
1.19

====

What follows is a collection of IC50 values obtained with IRE1α kinase (Homo sapiens (Human)).
Sequence (O75460 468-977): as above

Recorded results for 3 molecules are shown here.
{"Molecule": "COC(C)(C)CN[C@H]1CC[C@H](c2cnc(N)c3c(-c4cc(F)c(NS(=O)(=O)c5ccccc5F)cc4F)nn(C(C)C)c32)CC1 [Compound A13]", "IC50": "3.6 nM"}
{"Molecule": "CC(C)n1nc(-c2cc(F)c(NS(=O)(=O)c3cc(Cl)ccc3F)cc2F)c2c(N)ncc([C@H]3CC[C@H](N4CCOCC4)CC3)c21 [Compound A20]", "IC50": "2.3 nM"}
{"Molecule": "[2H]C([2H])([2H])Oc1ccc(F)c(S(=O)(=O)Nc2cc(F)c(-c3nn(C(C)C)c4c3c(N)ncc4[C@H]3CC[C@H](N4CCOCC4)CC3)cc2F)c1 [Compound A18]", "IC50": "1.9 nM"}

Here is the next item to consider.
Would you kindly share the measured IC50 for CCOc1ccc(Cl)c(S(=O)(=O)Nc2cc(F)c(-c3nn(C(C)C)c4c3c(N)ncc4[C@H]3CC[C@H](N4CCOCC4)CC3)cc2F)c1 [Compound A17] ?
2.1 nM
